method: Cytotoxicity against HEK293 cells assessed as inhibition of cell growth incubated for 72 hrs by MTT assay
Assay type: toxicity, cell-based
condition.summary: human
readout: IC50 at 72 h (µM)
Numbers only, in µM.

Below, each entry is followed by its recorded IC50 at 72 h result.
given.smiles | IC50 at 72 h, µM
O=C1N(Cc2cn(Cc3ccccc3)nn2)c2ccccc2[C@@]1(O)c1ccc(F)cc1 | 50.3
O=C1N(Cc2cn(Cc3ccccc3)nn2)c2ccccc2[C@@]1(O)c1cccc(O)c1 | 33.7
O=C1N(Cc2cn(Cc3ccccc3)nn2)c2ccccc2[C@]1(O)c1ccc(F)cc1 | 53.5

I'm hoping you can list IC50 at 72 h for every compound here, please.
1. O=C1N(Cc2cn(Cc3ccccc3)nn2)c2ccccc2[C@]1(O)c1ccsc1
2. O=C1N(Cc2cn(Cc3ccccc3)nn2)c2ccc(Br)cc2[C@@]1(O)c1ccccc1

[64, 87.3]

* * *

method: Cytotoxicity against HEK293 cells assessed as inhibition of cell growth incubated for 72 hrs by MTT assay
Type: toxicity, cell-based
condition.summary: human
For each entry below, report its IC50 at 72 h value.
Numbers only, in µM.

Below, each entry is followed by its recorded IC50 at 72 h result.
given.smiles | readout | output.unit | numeric.readout
O=C1N(Cc2cn(Cc3ccccc3)nn2)c2ccccc2[C@@]1(O)c1ccc2ccccc2c1 | IC50 at 72 h | µM | 12.4
O=C1N(Cc2cn(Cc3ccccc3)nn2)c2ccccc2[C@@]1(O)c1ccsc1 | IC50 at 72 h | µM | 46.4
O=C1N(Cc2cn(Cc3ccccc3)nn2)c2ccc(Br)cc2[C@]1(O)c1ccccc1 | IC50 at 72 h | µM | 36.1

Now consider a different compound.
Field request: IC50 at 72 h | item: CC(C)[C@@H]1CC[C@@H](C)C[C@@H]1n1cc(CN2C(=O)C(=O)c3ccccc32)nn1 23.1

* * *

method: Cytotoxicity against HEK293 cells assessed as inhibition of cell growth incubated for 72 hrs by MTT assay
Type: toxicity, cell-based
condition.summary: human
readout: IC50 at 72 h (µM)
Answers are plain numbers, in µM.

I'm hoping you can list IC50 at 72 h for every compound here, please.
1. O=C1C(=O)N(Cc2cn(Cc3ccccc3)nn2)c2ccccc21
2. COc1ccc([C@@]2(O)C(=O)N(Cc3cn(Cc4ccccc4)nn3)c3ccccc32)cc1
3. O=C1N(Cc2cn(Cc3ccccc3)nn2)c2ccccc2[C@]1(O)c1ccc2ccccc2c1
4. Cc1ccc2c(c1)C(=O)C(=O)N2Cc1cn(Cc2ccccc2)nn1

1: 63.7; 2: 38; 3: 14; 4: 26.9
